Test system: Blood
Assay Explanation: Drug level in human LS 174T cells xenografted BALB/c nu/nu mouse blood at 0.5 umol. iv
Type: ADME, cell-based, LS174T
Assay Context: in vivo, read-out: Drug uptake
Property Name: concentration (µM)
Provide only the numeric value, understood in µM.

[in] Tell me the measured concentration of NS(=O)(=O)c1nnc(NC(=O)CCC(=O)NC(CCCCNC(=O)CCCc2ccc(I)cc2)C(=O)O)s1 (stereo unspecified) , please.
[out] 250
